For each entry below, report its Ki value.
# measured.on: JAK3 (Homo sapiens, UniProt P52333)
# Construct: purchased Invitrogen, Madison, Wis
# Sequence (P52333 whole entry): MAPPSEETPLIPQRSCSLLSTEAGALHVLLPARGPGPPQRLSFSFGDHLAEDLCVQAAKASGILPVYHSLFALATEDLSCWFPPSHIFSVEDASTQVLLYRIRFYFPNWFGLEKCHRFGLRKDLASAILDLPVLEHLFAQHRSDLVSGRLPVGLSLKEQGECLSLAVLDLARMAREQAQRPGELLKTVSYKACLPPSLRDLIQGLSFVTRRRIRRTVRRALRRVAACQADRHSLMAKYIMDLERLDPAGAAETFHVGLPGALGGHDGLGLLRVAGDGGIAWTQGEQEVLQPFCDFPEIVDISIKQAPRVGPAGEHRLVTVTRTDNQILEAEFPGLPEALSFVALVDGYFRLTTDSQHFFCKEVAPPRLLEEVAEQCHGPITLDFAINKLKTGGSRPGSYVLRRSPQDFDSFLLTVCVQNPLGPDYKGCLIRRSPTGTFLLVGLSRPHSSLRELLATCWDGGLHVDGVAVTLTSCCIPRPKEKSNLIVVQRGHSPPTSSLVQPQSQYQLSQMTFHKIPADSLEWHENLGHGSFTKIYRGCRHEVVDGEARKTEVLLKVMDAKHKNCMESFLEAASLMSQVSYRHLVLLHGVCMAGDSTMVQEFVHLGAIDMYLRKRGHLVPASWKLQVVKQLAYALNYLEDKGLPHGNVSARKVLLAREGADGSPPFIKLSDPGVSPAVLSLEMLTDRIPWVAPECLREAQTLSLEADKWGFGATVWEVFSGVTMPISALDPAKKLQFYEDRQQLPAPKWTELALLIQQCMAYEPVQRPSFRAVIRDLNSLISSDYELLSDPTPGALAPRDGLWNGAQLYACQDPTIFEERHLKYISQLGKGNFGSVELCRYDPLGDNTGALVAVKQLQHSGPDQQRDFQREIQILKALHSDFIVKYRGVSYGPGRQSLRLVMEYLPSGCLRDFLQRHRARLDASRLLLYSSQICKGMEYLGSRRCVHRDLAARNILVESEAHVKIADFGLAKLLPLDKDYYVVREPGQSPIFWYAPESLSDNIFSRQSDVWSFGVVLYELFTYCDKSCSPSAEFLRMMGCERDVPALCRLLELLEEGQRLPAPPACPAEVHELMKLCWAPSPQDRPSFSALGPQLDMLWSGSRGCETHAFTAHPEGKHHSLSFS
# assay.procedure: JAK3 enzymatic activity assay (Z'-LYTE Biochemical Kinase Assay, 2 hr preincubation at 4° C.)
# recorded.conditions: cell free, 1% DMSO, read-out: JAK3 activity cell free (2 hr preincubation at (4° C.) Kj)

For record O=C(c1cc(-c2csc(Nc3ccc(N4CCOCC4)cc3)n2)c[nH]1)N1CCCC1 [19A] the listed Ki is 1.1 to 10 µM

For record CN1CCN(CC(=O)Nc2cccc(-c3nc(-c4c[nH]c(C(=O)N5CCCC5)c4)cs3)c2)CC1 [17A] the listed Ki is > 10 µM

For record CCOc1ccc(-c2nc(-c3c[nH]c(C(=O)N4CCCC4)c3)cs2)cc1OC [9A] the listed Ki is 1.1 to 10 µM

For record CN(c1ccccc1)c1nc(-c2c[nH]c(C(=O)N3CCCC3)c2)cs1 [15A] the listed Ki is > 10 µM

For record COc1cccc(-c2nc(-c3c[nH]c(C(=O)N4CCCC4)c3)cs2)c1 [10A] the listed Ki is 1.1 to 10 µM

For record O=C(c1cc(-c2csc(-c3ccccc3)n2)c[nH]1)N1CCCC1 [11A] the listed Ki is 1.1 to 10 µM

For record Cc1csc(Cc2nc(-c3c[nH]c(C(=O)N4CCCC4)c3)cs2)n1 [8A] the listed Ki is 1.1 to 10 µM

For record CC(=O)c1ccc(Nc2nc(-c3c[nH]c(C(=O)N4CCCC4)c3)cs2)cc1 [14A] the listed Ki is 1.1 to 10 µM

For record Cc1ccccc1-c1nc(-c2c[nH]c(C(=O)N3CCCC3)c2)cs1 [64A] the listed Ki is 1.1 to 10 µM

For record O=C(Nc1cccc(-c2nc(-c3c[nH]c(C(=O)N4CCCC4)c3)cs2)c1)c1ccccc1 [16A] the listed Ki is > 10 µM

For record O=C(c1cc(-c2csc(NC3CCCC3)n2)c[nH]1)N1CCCC1 [45A] the listed Ki is 1.1 to 10 µM

This collection of values is drawn from patent US8937065B2.
